- Test system: T-47D breast
- test_details: NCI tumour cell line growth inhibition, 48 h; in the data active means GI50 below about 0.43 µM; inactive means the rest
Give one outcome, nothing more. List: YES (active), NO (inactive)

Reference set, count: 3
> print(dat)
                                 mol.smiles  label
1  CC(C)(C)OC(=O)N[C@@H](Cc1ccccc1)C(=O)N(Cc1ccccc1)C1(C(=O)NCc2ccccc2)CCN(Cc2ccccc2)CC1     NO
2  CCn1c2ccccc2c2cc(C(=O)c3ccc(C)c4ccccc34)ccc21     NO
3  CCN(CC)CCCCNc1c2ccc(Cl)cc2nc2ccc(OC)cc12     NO

Next item in the queue.
Call for entry CC[C@H](C)[C@H](NC(=O)c1cccn1C)C(=O)N(C)[C@H](C[C@@H](OC(C)=O)c1nc(C(=O)N[C@@H](Cc2ccccc2)C[C@H](C)C(=O)OC)cs1)C(C)C : YES

* * *

Would you mind telling me the reported GI50 of each entry?
- System: IGROV1 ovarian
- test_details: NCI tumour cell line growth inhibition, 48 h

Guide cases for GI50, answers given:
> print(dat)
                                   compound  recorded.value
1  O=c1[nH]c(=O)n(C2CC(O)C(CO)O2)cc1C(F)(F)F (stereo not drawn)         9020 nM
2  CC(C)c1ccc(NC(=O)Cc2ccc(Nc3ncnc4cc(-c5cnn(CCN(C)C)c5)ccc34)cc2)cc1         1480 nM
3  C=C1CCC2C3(C)COC(c4ccccc4Cl)OC3CCC2(C)C1/C=C/C1=CCOC1=O (stereo not drawn)     > 100000 nM
4  COc1cc2c3c(n(CCCNCCCN)c(=O)c2cc1OC)-c1cc2c(cc1C3=O)OCO2         2690 nM
5  C[N+](C)=c1ccc2nc3c(cc(NCCCNc4cc5oc6cc(=[N+](C)C)ccc-6nc5c5ccccc45)c4ccccc43)oc-2c1         1360 nM
6  CC1(C)CCC[C@]2(C)c3ccccc3C(=O)CC12 (stereo partly drawn)        45300 nM
7          CNC(=O)c1cncc(/C=C/c2ccccc2Cl)c1      > 25000 nM

Proceeding to the next compound to report its GI50.
Provide measured GI50 value, entry: COc1cc(CNc2oc(-c3ccccc3)c(-c3ccccc3)c2C#N)cc(CN2CCN(C)CC2)c1O 1580 nM

* * *

- System: MDA-MB-231 breast
- test_details: NCI tumour cell line growth inhibition, 48 h
I would appreciate it if you labelled entries Y when TGI is 6 µM or higher, otherwise N.

Reference set, count: 3
> print(dat)
                                   compound                tgt  label
1     CN(C)CCCNc1nc2ccccc2c2[nH]c3ccccc3c12  MDA-MB-231 breast      N
2  COC(C)C(O)(C(=O)OCC1=CCN2CCC(O)C12)C(C)(C)O (centres undefined)  MDA-MB-231 breast      Y
3  CN(C)CCNCCCNc1c2ccccc2nc2cccc([N+](=O)[O-])c12  MDA-MB-231 breast      N

Is the recorded value of TGI equal to or greater than 6 µM for this compound? O=C(/C=C/C12c3ccccc3C(c3ccccc31)C1C(=O)NC(=O)C12)c1ccccc1 (centres undefined) Y

Is the recorded value of TGI equal to or greater than 6 µM for this compound? COc1cc2c(cc1OCc1ccccc1)NC(=O)[C@@H]1CCCN1C2=O Y

Is the recorded value of TGI equal to or greater than 6 µM for this compound? CC[C@H](C)[C@H](NC(=O)c1cccn1C)C(=O)N(C)[C@H](C[C@@H](OC(C)=O)c1nc(C(=O)N[C@@H](Cc2ccccc2)C[C@H](C)C(=O)OC)cs1)C(C)C N

Is the recorded value of TGI equal to or greater than 6 µM for this compound? CC1=NOC(=O)/C1=C/c1ccc2c(c1)OCO2 Y

Is the recorded value of TGI equal to or greater than 6 µM for this compound? CS(=O)(=O)N(c1cc(-c2ccc3ncnc(Nc4ccc(F)c(Cl)c4)c3c2)cnc1Cl)S(C)(=O)=O Y

* * *

- System: A549 NSCLC
- test_details: NCI tumour cell line growth inhibition, 48 h
quantity_name: TGI

Guide cases for TGI, answers given:
compound	recorded_value
CCC[CH2][Sn]1([CH2]CCC)[S]CC[N]1S(=O)(=O)c1ccc(C)cc1	9.32 µM
C=C1[C@@H]2CCC3[C@]4(C)C(CC[C@@]5(C)C(=O)O[C@H](O)[C@@H]45)[C@H](O)[C@]3(C2)[C@H]1OC1OC(CO)C(O)C(O)C1O (stereo not given in full)	> 50 µM

I have 8 compounds here; please give me TGI for each one.
1. COC(=O)C1CCc2nnc(-c3ccccc3)n21 (stereo not given)
2. COCCNc1cncc(C(N)=O)c1
3. Nc1ccc(/C=C/c2ccc3cccnc3c2)cc1
4. COc1cc2nccc(Oc3ccc(NC(=O)c4cn(C(C)C)c(=O)n(-c5ccc(F)cc5)c4=O)cc3F)c2cc1OC
5. Nc1cccc2c1C(=O)c1cccc(NC(=O)c3ccccc3)c1C2=O
6. COc1ccc(OC(C)C(=O)O)c2c(=O)ccccc12 (stereo not given)
7. O=c1/c(=N\Nc2ccccc2)c2cccc3ccc4cccc1c4c32
8. O=C(C(=C(I)I)c1ccccc1)c1ccccc1

["> 100 µM", "> 100 µM", "> 100 µM", "> 100 µM", "4.66 µM", "> 100 µM", "> 100 µM", "> 100 µM"]

* * *

- System: EKVX NSCLC
- test_details: NCI tumour cell line growth inhibition, 48 h
Would you mind telling me the reported TGI of each entry?

molecule	TGI
CCOC(=O)/C=C/CCC(C)(C)COC(C)=O	> 10 µM

I have 4 molecules here; please give me TGI for each one.
1. COC1(CC[C@H](C)COC2OC(CO)C(O)C(O)C2O)O[C@H]2C[C@H]3[C@@H]4CC=C5C[C@@H](OC6OC(CO)C(OC7OC(C)C(O)C(O)C7O)C(O)C6OC6OC(C)C(O)C(O)C6O)CC[C@]5(C)[C@H]4CC[C@]3(C)[C@H]2[C@@H]1C (stereo partly specified)
2. CC/C(=C/c1ccc(OC)cc1OC)[N+](=O)[O-]
3. NC(=O)C1CCN(Cc2c(Cl)c(Cl)c(CN3CCC(C(N)=O)CC3)c(Cl)c2Cl)CC1
4. CNC(=O)CN(CC(=O)O)C(=O)NC

1. 98.8 µM
2. 28.9 µM
3. > 100 µM
4. > 100 µM

I have 3 molecules here; please give me TGI for each one.
1. Cc1cc(-c2ccccc2)nc2oc(=O)n(C)c12
2. CNC(=S)N1CCN(C(C)=O)C1=S
3. CSc1ccc(/C=C2\N=C(c3ccccc3)N(c3nc4cc(Cl)c(F)cc4s3)C2=O)cc1

1. > 100 µM
2. 91.9 µM
3. > 100 µM

I have 7 molecules here; please give me TGI for each one.
1. Nc1ccc(/C=C/c2ccc3cccnc3c2)cc1
2. COc1ccc2c(c1OC)C(=O)N1C2=Cc2c(cc3c(c2OC)OCO3)CC1N(C)C (stereo unspecified)
3. O=c1/c(=N\Nc2ccccc2)c2cccc3ccc4cccc1c4c32
4. CC[PH+](CC)CC.[Cl][Au]
5. O=C(C(=C(I)I)c1ccccc1)c1ccccc1
6. CCn1c(-c2nonc2N)nc2c(N3CCCC3)nccc21
7. CO/N=C(\COc1ccc2oc(-c3ccccc3)cc(=O)c2c1)c1ccc(F)cc1

1. > 100 µM
2. > 100 µM
3. > 100 µM
4. 2.91 µM
5. > 100 µM
6. > 25 µM
7. > 100 µM

I have 3 molecules here; please give me TGI for each one.
1. CNC(=O)c1cncc(/C=C/c2ccccc2Cl)c1
2. N#Cc1cccc(C2C3=C(COC3=O)N(CCO)c3cc4c(cc32)OCO4)c1 (stereo unspecified)
3. CCC(CO)Nc1nc2c(c(=O)n(C)c(=O)n2C)n1CCO (stereo unspecified)

1: > 25 µM; 2: > 50 µM; 3: > 100 µM

I have 8 molecules here; please give me TGI for each one.
1. CCC1([N+](=O)[O-])CN(N=O)C1
2. CC1(C)C=C(/C=C2/N(S(=O)(=O)C(F)(F)F)C(/C=C3/N(S(=O)(=O)C(F)(F)F)C(C)(C#N)CC3(C)C)=CC2(C)C)N=C1/C=C1/CC(C)(C)C(=O)N1 (stereo unspecified)
3. O=C(O)c1ccc(SSc2ccc(C(=O)O)cn2)nc1
4. CCn1ncc2c(=O)n3ncn(-c4ccc(Br)cc4)c3nc21
5. CC(C)=C/C(CC(O)(C(F)(F)F)C(F)(F)F)=N\O
6. COc1ccc(C(=O)/C=C/SC(=NC#N)SC)cc1
7. CCOC(=O)C(NC(=O)c1cccc(Cl)c1)(Nc1cccc(C)c1)C(F)(F)F (stereo unspecified)
8. C[C@H]1[C@H](C)CC[C@]2(C(=O)OC3OC(CO)C(O)C(O)C3O)CC[C@]3(C)C(=CC[C@@H]4[C@@]5(C)C[C@@H](O)[C@@H]6OC(=O)c7cc(O)c(O)c(O)c7-c7c(cc(O)c(O)c7O)C(=O)OC[C@@]6(CO)[C@@H]5CC[C@]43C)[C@H]12 (stereo partly specified)

> 100 µM
81.2 µM
> 100 µM
> 100 µM
> 100 µM
> 100 µM
63.1 µM
> 100 µM

I have 8 molecules here; please give me TGI for each one.
1. O=C(c1ccc([N+](=O)[O-])cc1)N1CCCC1
2. O=c1c2cc3ccccc3n2c(=O)c2cc3ccccc3n12
3. O=c1c2cc([N+](=O)[O-])ccc2oc2nc3n(c(=O)c12)CCCS3
4. O/N=C/c1ccc(O)c(O)c1
5. N#Cc1cccc(N2C(=O)C3C4C=CC(C3C2=O)C2C(=O)N(c3cccc(C#N)c3)C(=O)C42)c1 (stereo unspecified)
6. CC(=O)/C(=N\Nc1ccc(Cl)cc1)C(C)=Nc1ccc(C)cc1
7. CC(=O)Oc1ccc2c(c1)C(=O)c1nc(C)c(C)nc1C2=O
8. O=C(Nc1nn(C(=O)c2cccnc2)c(=O)s1)c1ccc(Cl)cc1

1: > 100 µM; 2: > 100 µM; 3: > 100 µM; 4: > 100 µM; 5: > 100 µM; 6: > 100 µM; 7: > 78.6 µM; 8: > 100 µM

I have 3 molecules here; please give me TGI for each one.
1. O=C1NC(c2ccccc2)C2(C(=O)O)CN(C3CC3)c3cc(N4CCNCC4)c(F)cc3C2N1 (stereo unspecified)
2. O=C(/C=C/C12c3ccccc3C(c3ccccc31)C1C(=O)NC(=O)C12)c1ccccc1 (stereo unspecified)
3. CO[C@@]1(c2ccccc2)O[C@H]2OCCC2[C@H]1c1ccc(Cl)cc1 (stereo partly specified)

> 100 µM
4.39 µM
64.5 µM

I have 4 molecules here; please give me TGI for each one.
1. Nc1cccc2c1C(=O)c1cccc(NC(=O)c3ccccc3)c1C2=O
2. NC(=O)NN=C1Cc2ccccc2C1
3. CCN(CC)CCCCNc1c2ccc(Cl)cc2nc2ccc(OC)cc12
4. C=C1C(=O)O[C@H]2C[C@@H]1C(=O)CC(C)CCCC(C)=CCC[C@@]2(C)O (stereo partly specified)

4.52 µM
> 100 µM
3.98 µM
> 25 µM
